Could you please report measured self-splicing fitness (ln) for the items listed next?
- ASSAY OVERVIEW: self-splicing fitness, log relative to wild type (ln ratio); higher = more splicing; Tetrahymena group I intron in knt gene, E. coli kanamycin selection, DiMSum; sequences stand for … in CUCUCU…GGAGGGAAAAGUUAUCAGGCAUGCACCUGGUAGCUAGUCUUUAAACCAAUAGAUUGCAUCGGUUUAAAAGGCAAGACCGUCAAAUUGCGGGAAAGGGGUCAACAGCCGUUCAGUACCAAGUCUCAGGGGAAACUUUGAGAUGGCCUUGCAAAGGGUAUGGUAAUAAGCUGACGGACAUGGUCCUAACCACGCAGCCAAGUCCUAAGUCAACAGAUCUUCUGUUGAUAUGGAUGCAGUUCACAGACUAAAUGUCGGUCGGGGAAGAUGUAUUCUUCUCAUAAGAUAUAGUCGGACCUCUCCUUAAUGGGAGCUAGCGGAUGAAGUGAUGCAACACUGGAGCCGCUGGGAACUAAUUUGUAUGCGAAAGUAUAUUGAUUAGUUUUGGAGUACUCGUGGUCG;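 also: selection with 25 µg/mL kanamycin versus none on LB agar overnight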
- CONDITION NOTES: 37 °C
One number for each entry.

I'm hoping you can list self-splicing fitness (ln) for every sequence here, please.
1. UCAUAGCAAUAUUACGUCAU
2. AACGAGCAAUAUUACGAUAU
3. GAGUAGCAAUAUUACGAGUG
4. GAAUAGCAAUAUUACGAGUG

[reply]
-3.16
-1.3
-0.452
-2.34

====

- ASSAY OVERVIEW: self-splicing fitness, log relative to wild type (ln ratio); higher = more splicing; Tetrahymena group I intron in knt gene, E. coli kanamycin selection, DiMSum; sequences stand for … in CUCUCU…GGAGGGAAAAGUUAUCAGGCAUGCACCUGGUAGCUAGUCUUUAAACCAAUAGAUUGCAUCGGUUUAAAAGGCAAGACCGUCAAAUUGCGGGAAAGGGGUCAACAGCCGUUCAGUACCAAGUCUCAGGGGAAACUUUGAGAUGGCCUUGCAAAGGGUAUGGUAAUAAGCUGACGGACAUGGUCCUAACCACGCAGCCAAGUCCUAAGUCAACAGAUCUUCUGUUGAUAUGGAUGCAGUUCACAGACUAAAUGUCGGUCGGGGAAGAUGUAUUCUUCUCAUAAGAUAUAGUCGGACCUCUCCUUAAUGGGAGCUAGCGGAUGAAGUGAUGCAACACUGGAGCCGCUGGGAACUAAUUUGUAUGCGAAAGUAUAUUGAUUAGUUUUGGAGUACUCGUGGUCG
- CONDITION NOTES: 30 °C
ASSAY METRIC: self-splicing fitness (ln)

Some sequences with recorded self-splicing fitness (ln):
- SEQUENCE RECORD: "CCGCAGCAAUAUUACGAGAU"
  self-splicing fitness (ln): -4.09
- SEQUENCE RECORD: "CGUCAGCAAUAUUACGUCCA"
  self-splicing fitness (ln): -1.97

I'm hoping you can list self-splicing fitness (ln) for every sequence here, please.
1. AGUAAGCAAUAUUACGAUCC
2. GUGUAGCAAUAUUACGCUCG

[reply]
1: -0.71; 2: -1

I'm hoping you can list self-splicing fitness (ln) for every sequence here, please.
1. GCCAAGCAAUAUUACGUCAA
2. GCUCAGCAAUAUUACGUUUA
3. AGUGAGCAAUAUUACGUGAA
4. GUUGAGCAAUAUUACGAUUG
5. GAAAAGCAAUAUUACGGCCU

[reply]
1: -2.75; 2: -1.44; 3: -3.3; 4: -4.05; 5: -0.569

I'm hoping you can list self-splicing fitness (ln) for every sequence here, please.
1. UAUAAGCAAUAUUACGUUGG
2. CUGCAGCAAUAUUACGAGGA
3. CGCAAGCAAUAUUACGGAGA
4. GCAUAGCAAUAUUACGGAAC
5. AUUGAGCAAUAUUACGGAUU
6. GCUAAGCAAUAUUACGUCUA

[reply]
-2.78
-3.68
-3.09
-3.61
-2.96
-0.793

I'm hoping you can list self-splicing fitness (ln) for every sequence here, please.
1. AAGGAGCAAUAUUACGCAUA
2. ACGCAGCAAUAUUACGUAAA
3. CCCAAGCAAUAUUACGUAGG
4. GUUCAGCAAUAUUACGGCCC
5. UAGGAGCAAUAUUACGACAG
6. CUAAAGCAAUAUUACGCUAU
7. GUACAGCAAUAUUACGUAAG

[reply]
1: -2.45; 2: -2.06; 3: -2.17; 4: -0.59; 5: -2.19; 6: -4.21; 7: -1.08
